Field: Stability in AB White, 21-25° C. (content by LCMSMS). Provide a value for each of the molecules that follow.
Assay: Stability of cannabinoid and Vitamin E components of Beverage 1 (AB White) stored at 8° C. and 21-25° C., LCMSMS over 570 days
Format: physicochemical
Conditions: beverage stored at 21-25° C., day 180
Entry rule: numbers only, all in µg/mL.

## Task Which Stability in AB White, 21-25° C. (content by LCMSMS) is reported for this molecule? C=C(C)[C@@H]1CCC(C)=C[C@H]1c1c(O)cc(CCC)cc1O
## Result 0.141

## Task For CCCCCc1cc(O)c(C/C=C(\C)CCC=C(C)C)c(O)c1 , what is its reported Stability in AB White, 21-25° C. (content by LCMSMS)?
## Result 4.79

## Task Suppose we examine the molecule C=C(C)[C@@H]1CCC(C)=C[C@H]1c1c(O)cc(CCCCC)c(C(=O)O)c1O ; what Stability in AB White, 21-25° C. (content by LCMSMS) value has been reported?
## Result 1.69

## Task Need Stability in AB White, 21-25° C. (content by LCMSMS), item CCCCCc1cc(O)c2c(c1)OC1(C)CCC3C1C2C3(C)C (stereo not shown)
## Result 0.527

###

Format: physicochemical
Settings: stored at room temperature (21-25° C.), day 11
Assignment: determine reported Stability in Powder Concentrate (content by LCMSMS) for the given compounds.
Entry rule: numbers only, all in mg/g powder.

## Task What Stability in Powder Concentrate (content by LCMSMS) value was documented for this compound, CCCCCc1cc(O)c2c(c1)OC(C)(C)[C@@H]1CCC(C)=C[C@@H]21 [D9 THC, delta-9-tetrahydrocannabinol, reference compound] ?
## Result 2.58

## Task What Stability in Powder Concentrate (content by LCMSMS) value was documented for this compound, CCCCCc1cc(O)c2c(c1)OC(C)(CCC=C(C)C)C=C2 (centres unmarked) ?
## Result 0.071

## Task Please give the measured Stability in Powder Concentrate (content by LCMSMS) for this compound: CCCCCc1cc(O)c2c(c1)OC(C)(C)c1ccc(C)cc1-2
## Result 0.494

## Task Need Stability in Powder Concentrate (content by LCMSMS), item C=C(C)[C@@H]1CCC(C)=C[C@H]1c1c(O)cc(CCC)cc1O
## Result 0.051

## Task I have this compound here, CCCCCc1cc(O)c(C/C=C(\C)CCC=C(C)C)c(O)c1 , and I need its recorded Stability in Powder Concentrate (content by LCMSMS).
## Result 1.14

###

Assay: Stability of cannabinoid and Vitamin E components of Beverage 1 (AB White) stored at 8° C. and 21-25° C., LCMSMS over 570 days
Format: physicochemical
Conditions: beverage stored at 8° C., day 8
Simple rule here: Stability in AB White, 8° C. (content by LCMSMS) less than 3 µg/mL is T, otherwise F.

## Task Is Stability in AB White, 8° C. (content by LCMSMS) of CCCCCc1cc(O)c2c(c1)OC(C)(CCC=C(C)C)C=C2 (stereo not shown) strictly below 3 µg/mL?
## Result T

## Task Please check: Stability in AB White, 8° C. (content by LCMSMS) for CCCCCc1cc2c(c(O)c1C(=O)O)[C@@H]1C=C(C)CC[C@H]1C(C)(C)O2 [D9 THCA, delta-9-tetrahydrocannabinolic acid] , strictly under 3 µg/mL or not?
## Result T

## Task Just wondering, is Stability in AB White, 8° C. (content by LCMSMS) of CCCc1cc(O)c2c(c1)OC(C)(C)[C@@H]1CCC(C)=C[C@@H]21 [THCV, delta-9-tetrahydrocannabivarin] below 3 µg/mL?
## Result F

## Task Here's an entry: CCCCCc1cc(O)c2c(c1)OC(C)(C)c1ccc(C)cc1-2 . Is its Stability in AB White, 8° C. (content by LCMSMS) below 3 µg/mL?
## Result T

## Task Find out if reported Stability in AB White, 8° C. (content by LCMSMS) for CCCCCc1cc(O)c2c(c1)OC(C)(C)[C@@H]1CCC(C)=C[C@@H]21 [D9 THC, delta-9-tetrahydrocannabinol, reference compound] is less than 3 µg/mL
## Result F

## Task Hello, I'm reviewing records and need to know if Stability in AB White, 8° C. (content by LCMSMS) of C=C(C)[C@@H]1CCC(C)=C[C@H]1c1c(O)cc(CCCCC)c(C(=O)O)c1O is below 3 µg/mL. Could you check?
## Result T

## Task In the record for C=C(C)[C@@H]1CCC(C)=C[C@H]1c1c(O)cc(CCCCC)cc1O [CBD, cannabidiol, reference compound] , is Stability in AB White, 8° C. (content by LCMSMS) less than 3 µg/mL?
## Result F

## Task Stability in AB White, 8° C. (content by LCMSMS) strictly < 3 µg/mL for this molecule? CCCCCc1cc(O)c(C/C=C(\C)CCC=C(C)C)c(O)c1
## Result F

## Task Check if Stability in AB White, 8° C. (content by LCMSMS) falls below 3 µg/mL for CCCCCc1cc(O)c2c(c1)OC1(C)CCC3C1C2C3(C)C (stereo not shown) .
## Result T

## Task Dear colleague, could you confirm whether Stability in AB White, 8° C. (content by LCMSMS) of C=C(C)[C@@H]1CCC(C)=C[C@H]1c1c(O)cc(CCC)cc1O falls below 3 µg/mL? Thanks.
## Result T

###

Assay type: physicochemical
Details: stored at room temperature (21-25° C.), day 450
test.readout: Stability in Powder Concentrate (content by LCMSMS) (mg/g powder)
Numbers only here, please. The scale is mg/g powder.

## Task Would you mind telling me what Stability in Powder Concentrate (content by LCMSMS) value was observed for CCCCCc1cc(O)c2c(c1)OC(C)(C)c1ccc(C)cc1-2 [CBN, cannabinol] ?
## Result 0.480

## Task Param item = Cc1c(C)c2c(c(C)c1OC(=O)CCC(=O)O)CC[C@@](C)(CCC[C@H](C)CCC[C@H](C)CCCC(C)C)O2 [α-Tocopheryl succinate] ; retrieve measured Stability in Powder Concentrate (content by LCMSMS).
## Result 1.80

## Task Param item = C=C(C)[C@@H]1CCC(C)=C[C@H]1c1c(O)cc(CCCCC)c(C(=O)O)c1O [CBDA, cannabidiolic acid] ; retrieve measured Stability in Powder Concentrate (content by LCMSMS).
## Result 0.398

## Task Could you tell me which Stability in Powder Concentrate (content by LCMSMS) is on file for CC(=O)Oc1c(C)c(C)c2c(c1C)CCC(C)(CCC[C@H](C)CCC[C@H](C)CCCC(C)C)O2 (stereo partly drawn) [α-Tocopheryl acetate] ?
## Result 2.07

## Task Would you mind telling me what Stability in Powder Concentrate (content by LCMSMS) value was observed for CCCCCc1cc(O)c2c(c1)OC(C)(C)[C@@H]1CCC(C)=C[C@@H]21 [D9 THC, delta-9-tetrahydrocannabinol, reference compound] ?
## Result 2.61

## Task Consider the compound shown here: CCCCCc1cc(O)c2c(c1)OC(C)(CCC=C(C)C)C=C2 (stereo not drawn) [CBC, cannabichromene] What is its recorded Stability in Powder Concentrate (content by LCMSMS)?
## Result 0.073

###

Format: physicochemical
Conditions: stored at room temperature (21-25° C.), day 450
Exercise: for every item that follows, state its recorded Stability in Powder Concentrate (content by LCMSMS).
The figure you give is taken to be in mg/g powder; do not add the unit.

## Task Which Stability in Powder Concentrate (content by LCMSMS) reading was recorded for the molecule CCCCCc1cc2c(c(O)c1C(=O)O)[C@@H]1C=C(C)CC[C@H]1C(C)(C)O2 [D9 THCA, delta-9-tetrahydrocannabinolic acid] ?
## Result 0.155

## Task What value of Stability in Powder Concentrate (content by LCMSMS) has been recorded for this entry: CCCCCc1cc(O)c(C/C=C(\C)CCC=C(C)C)c(O)c1
## Result 1.06

## Task Which measured Stability in Powder Concentrate (content by LCMSMS) value corresponds to CCCc1cc(O)c2c(c1)OC(C)(C)[C@@H]1CCC(C)=C[C@@H]21 [THCV, delta-9-tetrahydrocannabivarin] ?
## Result 0.680

## Task Give its Stability in Powder Concentrate (content by LCMSMS) value. Item: CCCCCc1cc(O)c2c(c1)OC1(C)CCC3C1C2C3(C)C (stereo not shown)
## Result 0.052

## Task Data request, read-out Stability in Powder Concentrate (content by LCMSMS), for C=C(C)[C@@H]1CCC(C)=C[C@H]1c1c(O)cc(CCCCC)cc1O [CBD, cannabidiol, reference compound]
## Result 5.65

## Task Field request: Stability in Powder Concentrate (content by LCMSMS) | item: C=C(C)[C@@H]1CCC(C)=C[C@H]1c1c(O)cc(CCC)cc1O
## Result 0.049

## Task I have this molecule here, Cc1c(C)c2c(c(C)c1O)CC[C@@](C)(CCC[C@H](C)CCC[C@H](C)CCCC(C)C)O2 , and I need its recorded Stability in Powder Concentrate (content by LCMSMS).
## Result 5.00
